biological target: HRV3C (Human rhinovirus 14, UniProt P03303); construct: 3CLpro and HRV3C was added using a Multidrop Combi; test: biochemical; parameters: species or system HRV; details: HRV3C, 30 mins preincubation, SAMDI-MS; read-out: HRV IC50 (bound)
Sequence (P03303 1538-1719): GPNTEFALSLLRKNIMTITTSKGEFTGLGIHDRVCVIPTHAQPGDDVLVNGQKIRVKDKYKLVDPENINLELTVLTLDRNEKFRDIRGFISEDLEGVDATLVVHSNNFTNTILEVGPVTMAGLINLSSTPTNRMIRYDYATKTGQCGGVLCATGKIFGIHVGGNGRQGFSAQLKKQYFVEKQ
recorded.endpoint: IC50

CC(C)(C)[C@H](NC(=O)CC(F)(F)F)C(=O)N1C[C@H]2[C@@H]([C@H]1C(=O)N[C@H](C#N)C[C@@H]1Oc3ccncc3NC1=O)[C@H]1C=C[C@@H]2C1 | > 500 nM
CC(C)(OCC1CC1)[C@H](NC(=O)C(F)(F)C(F)(F)F)C(=O)N1C[C@H]2[C@@H]([C@H]1C(=O)N[C@H](C#N)C[C@@H]1CCNC1=O)[C@H]1C=C[C@@H]2C1 | > 500 nM
COC(C)(C)[C@H](NC(=O)C(F)(F)C(F)(F)F)C(=O)N1C[C@H]2[C@@H]([C@H]1C(=O)N[C@H](C#N)C[C@@H]1CCNC1=O)[C@H]1C=C[C@@H]2C1 | > 500 nM
C[C@@H](OC1CC1)[C@H](NC(=O)C(F)(F)C(F)(F)F)C(=O)N1C[C@H]2[C@@H]([C@H]1C(=O)N[C@H](C#N)C[C@@H]1CCNC1=O)[C@H]1C=C[C@@H]2C1 | > 500 nM
CC(C)(C)[C@H](NC(=O)C1(C(F)(F)F)CC1)C(=O)N1C[C@H]2[C@@H]([C@H]1C(=O)N[C@H](C#N)C[C@@H]1CCNC1=O)[C@H]1C=C[C@@H]2C1 | > 10000 nM
